tested on: Trypanosoma cruzi; assay: Antitrypanosomal activity against Trypanosoma cruzi amastigotes infected in mouse peritoneal macrophages assessed as endocytic index after 3 day; assay type: functional, organism-based; conditions: 72 h
value.type: pIC50
On this scale, pIC50 is minus log10 of a concentration expressed in M (mol/L).

> print(dat)
                                   molecule       assay.target  value.type  obs.value
1  Cn1c([N+](=O)[O-])cnc1-c1nnc(N/N=C\c2ccc(O)c(O)c2)s1 [BRAZILIZONE A]  Trypanosoma cruzi       pIC50       5.85

Input line: Give reported pIC50 value for `Cn1c([N+](=O)[O-])cnc1-c1nnc(N/N=C\c2ccc(O)cc2)s1`
Output line: 5.49

* * *

test system: Trypanosoma cruzi; test: Antitrypanosomal activity against Trypanosoma cruzi amastigotes infected in mouse peritoneal macrophages assessed as inhibition of infection after 4 day; type: functional, organism-based; settings: 96 h
value.type: pIC50
On this scale, pIC50 is minus log10 of a concentration expressed in M (mol/L).

> print(dat)
                            compound.string  obs.value
1  Cn1c([N+](=O)[O-])cnc1-c1nnc(N/N=C\c2ccc(O)c(O)c2)s1       5.77

Input line: Give reported pIC50 value for `Cn1c([N+](=O)[O-])cnc1-c1nnc(N/N=C\c2ccc(O)cc2)s1`
Output line: 5.77
